Taken from PubChem BioAssay AID2060609.

Task for the reader: assign each of the following molecules its reported viability, T/C.
Tested on: 855422-203-R-J1-PDC complex spheroids, viability
EXPERIMENTAL_DETAILS: Anticancer human tumor 855422-203-R-J1-PDC patient-derived bladder carcinoma cell line growth inhibition [CLK]
SETTINGS: second compound 0.1 µM; first compound 1 µM; stronger effect = lower value
Description: A high-throughput screen of multi-cell type tumor spheroids was designed to identify active combinations of […] and targeted small molecules. Complex spheroids include a stromal component modeled by human endothelial cells (HUVEC) and fibroblasts modeled by human mesenchymal stem cells (MSCs). […] Compounds. […] If the clinical Cmax for an agent had not been determined, the highest concentration tested was 10 microM. […]
Lab book: enter the figure in %, no units written.

Problem: Quick one: viability, T/C of CC(=O)O[C@H]1C(=O)[C@@]2(C)[C@H]([C@H](OC(=O)c3ccccc3)[C@]3(O)C[C@H](OC(=O)[C@H](O)[C@@H](NC(=O)c4ccccc4)c4ccccc4)C(C)=C1C3(C)C)[C@]1(OC(C)=O)CO[C@@H]1C[C@@H]2O + CN1CCN(c2cc(C(=O)Nc3cc4cc(-c5cnn(C)c5)ccc4cn3)ccn2)CC1 ?
Solution: 6.41

Problem: Which viability, T/C is listed for CC(Nc1ccc2c(c1)OCCn1cc(N3C(=O)OCC3C(F)F)nc1-2)C(N)=O (configuration not stated) + CN1CCN(c2cc(C(=O)Nc3cc4cc(-c5cnn(C)c5)ccc4cn3)ccn2)CC1 ?
Solution: 30.4

Problem: Bench note: what viability, T/C did O=C(c1cc(Cc2n[nH]c(=O)c3ccccc23)ccc1F)N1CCN(C(=O)C2CC2)CC1 + CN1CCN(c2cc(C(=O)Nc3cc4cc(-c5cnn(C)c5)ccc4cn3)ccn2)CC1 show?
Solution: 89.6

Problem: So what does the record say about viability, T/C for COc1cccc2c1C(=O)c1c(O)c3c(c(O)c1C2=O)CC(O)(C(=O)CO)CC3OC1CC(N)C(O)C(C)O1 (configuration not stated) + CNC(=O)c1ccc(Nc2nc(OC3CCCC3)c3c(-c4ccc5nc(C)oc5c4)c[nH]c3n2)c(OC)c1 ?
Solution: 0.3

Problem: For the molecule CC1COCCN1c1cc(C2(S(C)(=N)=O)CC2)nc(-c2ccnc3[nH]ccc23)n1 (configuration not stated) + CN1CCN(c2cc(C(=O)Nc3cc4cc(-c5cnn(C)c5)ccc4cn3)ccn2)CC1 , what viability, T/C is on record?
Solution: 80.1

Problem: Value lookup for viability, T/C; key = COc1ccc([C@@H](O)c2cc(-c3ncnc4cc(N5CCOCC5)ccc34)c(F)cc2Cl)nn1 + CNC(=O)c1ccc(Nc2nc(OC3CCCC3)c3c(-c4ccc5nc(C)oc5c4)c[nH]c3n2)c(OC)c1
Solution: 47.9

Problem: Need viability, T/C, item C#Cc1c(F)ccc2cc(O)cc(-c3ncc4c(N5CC6CCC(C5)N6)nc(OCC56CCCN5CC(F)C6)nc4c3F)c12 (configuration not stated) + CNC(=O)c1ccc(Nc2nc(OC3CCCC3)c3c(-c4ccc5nc(C)oc5c4)c[nH]c3n2)c(OC)c1
Solution: 39.6

Problem: Need viability, T/C of O=c1[nH]cc(F)c(=O)[nH]1 + CN1CCN(c2cc(C(=O)Nc3cc4cc(-c5cnn(C)c5)ccc4cn3)ccn2)CC1 , thanks.
Solution: 68.1

Problem: Report viability, T/C for CC(CO)NC(=O)c1cc(-c2ccc(Cl)cc2)nn(-c2cnn(C)c2)c1=O (configuration not stated) + CNC(=O)c1ccc(Nc2nc(OC3CCCC3)c3c(-c4ccc5nc(C)oc5c4)c[nH]c3n2)c(OC)c1 please.
Solution: 63

Problem: # viability, T/C lookup, item COc1c(OCCCN2CCOCC2)ccc2c3n(c(=NC(=O)c4cnc(N)nc4)nc12)CCN3 + CNC(=O)c1ccc(Nc2nc(OC3CCCC3)c3c(-c4ccc5nc(C)oc5c4)c[nH]c3n2)c(OC)c1
Solution: 2.07

Problem: Quick one: viability, T/C for CC(Nc1ccc2c(c1)OCCn1cc(N3C(=O)OCC3C(F)F)nc1-2)C(N)=O (configuration not stated) + CNC(=O)c1ccc(Nc2nc(OC3CCCC3)c3c(-c4ccc5nc(C)oc5c4)c[nH]c3n2)c(OC)c1 ?
Solution: 27.5

Problem: Given the entry CCc1c2c(nc3ccc(O)cc13)-c1cc3c(c(=O)n1C2)COC(=O)[C@]3(O)CC + CNC(=O)c1ccc(Nc2nc(OC3CCCC3)c3c(-c4ccc5nc(C)oc5c4)c[nH]c3n2)c(OC)c1 , report its measured viability, T/C.
Solution: 1.46

Problem: // lookup viability, T/C for COc1ccc([C@@H](O)c2cc(-c3ncnc4cc(N5CCOCC5)ccc34)c(F)cc2Cl)nn1 + CN1CCN(c2cc(C(=O)Nc3cc4cc(-c5cnn(C)c5)ccc4cn3)ccn2)CC1
Solution: 86

Problem: Which value of viability, T/C has been reported for COc1cccc2c1C(=O)c1c(O)c3c(c(O)c1C2=O)CC(O)(C(=O)CO)CC3OC1CC(N)C(O)C(C)O1 (configuration not stated) + CN1CCN(c2cc(C(=O)Nc3cc4cc(-c5cnn(C)c5)ccc4cn3)ccn2)CC1 in the records?
Solution: 1.31

Problem: Bench note: what viability, T/C did COC1C=CCC(C)C(C)S(=O)(=O)NC(=O)c2ccc3c(c2)N(CC2CCC21)CC1(CCCc2cc(Cl)ccc21)CO3 (configuration not stated) + CNC(=O)c1ccc(Nc2nc(OC3CCCC3)c3c(-c4ccc5nc(C)oc5c4)c[nH]c3n2)c(OC)c1 show?
Solution: 77.3

Problem: I would be grateful if you could share the reported viability, T/C for O=C(c1cc(Cc2n[nH]c(=O)c3ccccc23)ccc1F)N1CCN(C(=O)C2CC2)CC1 + CNC(=O)c1ccc(Nc2nc(OC3CCCC3)c3c(-c4ccc5nc(C)oc5c4)c[nH]c3n2)c(OC)c1 .
Solution: 47.4

Problem: Record request: viability, T/C value, item CC(=O)O[C@H]1C(=O)[C@@]2(C)[C@H]([C@H](OC(=O)c3ccccc3)[C@]3(O)C[C@H](OC(=O)[C@H](O)[C@@H](NC(=O)c4ccccc4)c4ccccc4)C(C)=C1C3(C)C)[C@]1(OC(C)=O)CO[C@@H]1C[C@@H]2O + CNC(=O)c1ccc(Nc2nc(OC3CCCC3)c3c(-c4ccc5nc(C)oc5c4)c[nH]c3n2)c(OC)c1
Solution: 11.9

###

Tested on: 855422-203-R-J1-PDC complex spheroids, viability
EXPERIMENTAL_DETAILS: Anticancer human tumor 855422-203-R-J1-PDC cell line growth inhibition [CLK];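 also: spheroids exposed to drugs for seven days before readout; 100% = DMSO vehicle control wells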
SETTINGS: second compound 3.16 µM; first compound 10 µM; stronger effect = lower value
VALUE_KIND: viability, T/C (%)
The answer is to be given in %; state only the numeric part.

Problem: For CC1(C)CCC(CN2CCN(c3ccc(C(=O)NS(=O)(=O)c4ccc(NCC5CCOCC5)c([N+](=O)[O-])c4)c(Oc4cnc5[nH]ccc5c4)c3)CC2)=C(c2ccc(Cl)cc2)C1 + CNC(=O)c1ccc(Nc2nc(OC3CCCC3)c3c(-c4ccc5nc(C)oc5c4)c[nH]c3n2)c(OC)c1 , what is its reported viability, T/C?
Solution: 6.53

Problem: Can you look up the measured viability, T/C of CC1(C)CCC(CN2CCN(c3ccc(C(=O)NS(=O)(=O)c4ccc(NCC5CCOCC5)c([N+](=O)[O-])c4)c(Oc4cnc5[nH]ccc5c4)c3)CC2)=C(c2ccc(Cl)cc2)C1 + CN1CCN(c2cc(C(=O)Nc3cc4cc(-c5cnn(C)c5)ccc4cn3)ccn2)CC1 for me?
Solution: 1.58

Problem: I am curious: what viability, T/C value has been reported for CC(Nc1ccc2c(c1)OCCn1cc(N3C(=O)OCC3C(F)F)nc1-2)C(N)=O (stereo not given) + CNC(=O)c1ccc(Nc2nc(OC3CCCC3)c3c(-c4ccc5nc(C)oc5c4)c[nH]c3n2)c(OC)c1 ?
Solution: 5.74

Problem: Fill blank: measured viability, T/C of the compound Nc1ccccc1NC(=O)c1ccc(CNC(=O)OCc2cccnc2)cc1 + CNC(=O)c1ccc(Nc2nc(OC3CCCC3)c3c(-c4ccc5nc(C)oc5c4)c[nH]c3n2)c(OC)c1 is ____.
Solution: 0.29

Problem: Give its viability, T/C value. Item: Nc1ccn(C2OC(CO)C(O)C2(F)F)c(=O)n1 (stereo not given) + CNC(=O)c1ccc(Nc2nc(OC3CCCC3)c3c(-c4ccc5nc(C)oc5c4)c[nH]c3n2)c(OC)c1
Solution: 6.69

Problem: I have this compound here, C=CC(=O)N1CCN(c2nc(=O)n(-c3c(C)ccnc3C(C)C)c3nc(-c4c(O)cccc4F)c(F)cc23)C(C)C1 (stereo not given) + CNC(=O)c1ccc(Nc2nc(OC3CCCC3)c3c(-c4ccc5nc(C)oc5c4)c[nH]c3n2)c(OC)c1 , and I need its recorded viability, T/C.
Solution: 14.1

Problem: // query viability, T/C value for entry COc1ccc([C@@H](O)c2cc(-c3ncnc4cc(N5CCOCC5)ccc34)c(F)cc2Cl)nn1 + CN1CCN(c2cc(C(=O)Nc3cc4cc(-c5cnn(C)c5)ccc4cn3)ccn2)CC1
Solution: 0.13

Problem: viability, T/C for CCCS(=O)(=O)Nc1ccc(F)c(C(=O)c2c[nH]c3ncc(-c4ccc(Cl)cc4)cc23)c1F + CN1CCN(c2cc(C(=O)Nc3cc4cc(-c5cnn(C)c5)ccc4cn3)ccn2)CC1 ?
Solution: 0.77

Problem: Query (compound): CC1COCCN1c1cc(C2(S(C)(=N)=O)CC2)nc(-c2ccnc3[nH]ccc23)n1 (stereo not given) + CNC(=O)c1ccc(Nc2nc(OC3CCCC3)c3c(-c4ccc5nc(C)oc5c4)c[nH]c3n2)c(OC)c1 ; field requested: viability, T/C
Solution: 6.49

Problem: Fill blank: measured viability, T/C of the compound COc1ccc([C@@H](O)c2cc(-c3ncnc4cc(N5CCOCC5)ccc34)c(F)cc2Cl)nn1 + CNC(=O)c1ccc(Nc2nc(OC3CCCC3)c3c(-c4ccc5nc(C)oc5c4)c[nH]c3n2)c(OC)c1 is ____.
Solution: 12.4
